Attribute: abundance fitness
B1: POU domain, class 3, transcription factor 2, residues 356 to 411; numbered along this chain, P20265 (parent)
chain: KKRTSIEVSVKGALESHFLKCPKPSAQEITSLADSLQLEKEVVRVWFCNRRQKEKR

Variants of: B1
Assay: abundance fitness (aPCA) (normalised: wild type 0, dead -1); higher = more abundant; growth selection in yeast, the domain comes from the species named
Conditions: Homo sapiens
assayReadout: abundance fitness

In [3]: df
Out[3]:
    sequencechange  valuereported
 0            K23R         -0.041
 1            H17P          -1.05
 2            G12D         -0.027
 3            E54M         -0.407
 4            L19T         -0.183
 5            T30E          0.022
 6            T30K          0.008
 7            K53A         -0.602
 8            K40V          0.007
 9            I29C         -0.633
10            F18V          -1.03
11            H17V         -0.287
12            W46Y         -0.648
13            T30C         -0.131
14            L38V         -0.119
15            F18R         -0.872
16            K40S         -0.036
17             R3P         -0.134
18            R56S         -0.194
19            S35V         -0.119
20            K23P         -0.863
21             T4R         -0.356
22            V43W         -0.793
23             E7K         -0.112
24            V45S          0.097
25            N49T         -0.207
26            P24F         -0.999
27            A26I          -0.05
28            V45D           0.07
29            K53L          -0.18
